B1: FBXO3 (parent)
chain: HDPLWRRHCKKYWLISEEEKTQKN

Variants of: B1
Assay Text: protein stability index of a GFP-peptide fusion (GPS, HEK-293T) (PSI 1-6); higher = more stable;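 also: lentivirally expressed fusions sorted by FACS into six bins by GFP to DsRed ratio, PSI derived from sequencing read proportions per bin multiplied by bin number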
Condition Summary: c terminus: a fixed tail appended
Cut-off 3 on protein stability index, inclusive. At or above means 1; below means 0.

Worked examples, 5 variants total:
W13V ... 1
H8D ... 1
P3G ... 1
R6I ... 0
I15R ... 1

Problem: Textbook exercise: given the entry N24F , state whether its protein stability index is greater than or equal to 3.
Result: 0

Problem: Textbook exercise: given the entry E18L , state whether its protein stability index is greater than or equal to 3.
Result: 0

From: the supplement of paper PMC10567573
